System name: T1, IL-18 receptors on HEK-Blue IL-18 reporter cells (UniProt Q13478 19-541; O95256 20-599, limits assumed); further: unit not given here
T1 sequence (looked up) 1: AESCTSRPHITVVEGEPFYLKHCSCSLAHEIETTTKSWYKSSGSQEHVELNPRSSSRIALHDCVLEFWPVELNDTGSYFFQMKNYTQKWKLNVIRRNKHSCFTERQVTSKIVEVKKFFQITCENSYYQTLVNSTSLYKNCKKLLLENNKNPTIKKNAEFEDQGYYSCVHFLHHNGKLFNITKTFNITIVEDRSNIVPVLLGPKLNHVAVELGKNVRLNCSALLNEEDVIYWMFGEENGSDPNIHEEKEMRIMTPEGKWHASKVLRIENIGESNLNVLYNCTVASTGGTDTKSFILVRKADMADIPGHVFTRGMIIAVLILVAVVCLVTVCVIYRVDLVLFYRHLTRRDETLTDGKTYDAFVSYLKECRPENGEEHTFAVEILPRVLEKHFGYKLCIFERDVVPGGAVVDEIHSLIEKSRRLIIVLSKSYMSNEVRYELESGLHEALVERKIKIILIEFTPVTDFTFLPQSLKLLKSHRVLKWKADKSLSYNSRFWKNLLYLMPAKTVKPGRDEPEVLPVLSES
T1 sequence (looked up) 2: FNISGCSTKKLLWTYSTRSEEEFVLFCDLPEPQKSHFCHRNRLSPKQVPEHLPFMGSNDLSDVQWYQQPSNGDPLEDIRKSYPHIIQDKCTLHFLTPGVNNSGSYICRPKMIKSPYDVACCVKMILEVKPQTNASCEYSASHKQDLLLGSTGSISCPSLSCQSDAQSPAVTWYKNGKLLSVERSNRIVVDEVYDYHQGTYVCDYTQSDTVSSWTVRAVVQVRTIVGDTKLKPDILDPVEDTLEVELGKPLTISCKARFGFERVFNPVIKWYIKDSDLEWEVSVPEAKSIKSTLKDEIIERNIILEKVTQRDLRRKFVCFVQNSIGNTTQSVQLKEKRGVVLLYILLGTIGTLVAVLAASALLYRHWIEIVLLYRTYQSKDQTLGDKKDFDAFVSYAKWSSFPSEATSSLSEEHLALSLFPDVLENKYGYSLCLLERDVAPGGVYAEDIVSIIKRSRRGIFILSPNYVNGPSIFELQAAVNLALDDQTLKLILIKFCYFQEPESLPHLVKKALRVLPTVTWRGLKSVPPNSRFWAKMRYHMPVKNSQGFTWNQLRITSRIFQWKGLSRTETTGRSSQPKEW
Procedure details: cell-based or functional assay
Quantity measured: HEK-Blue activity, No BP, DF-1,000,000
Hey, just send me the number, nothing else.

Previously resolved entries follow.
IL-18 variant T34N, S36Y, D40H, N41T, K53G, S55Y (ligand) YFGKLESKLSVIRNLNDQVLFIDQGNRPLFEDMNDYDMRHTAPRTIFIISMYGDYQPRGMAVTISVKSEKISTLSSENKIISFKEMNPPDNIKDTKSDIIFFQRSVPGHDNKMQFESSSYEGYFLASEKERDLFKLILKKEDELGDRSIMFTVQNED    0.09
IL-18 variant K53L, S55G (ligand) YFGKLESKLSVIRNLNDQVLFIDQGNRPLFEDMTDSDMRDNAPRTIFIISMYLDGQPRGMAVTISVKSEKISTLSSENKIISFKEMNPPDNIKDTKSDIIFFQRSVPGHDNKMQFESSSYEGYFLASEKERDLFKLILKKEDELGDRSIMFTVQNED    0.09
IL-18 variant T34E, S36P, D40A, N41G, K53T, S55R (ligand) YFGKLESKLSVIRNLNDQVLFIDQGNRPLFEDMEDPDMRAGAPRTIFIISMYTDRQPRGMAVTISVKSEKISTLSSENKIISFKEMNPPDNIKDTKSDIIFFQRSVPGHDNKMQFESSSYEGYFLASEKERDLFKLILKKEDELGDRSIMFTVQNED    0.09
IL-18 variant K53Y, S55Y, Q56H (ligand) YFGKLESKLSVIRNLNDQVLFIDQGNRPLFEDMTDSDMRDNAPRTIFIISMYYDYHPRGMAVTISVKSEKISTLSSENKIISFKEMNPPDNIKDTKSDIIFFQRSVPGHDNKMQFESSSYEGYFLASEKERDLFKLILKKEDELGDRSIMFTVQNED    0.14
IL-18 variant K53D, S55T, H109I (ligand) YFGKLESKLSVIRNLNDQVLFIDQGNRPLFEDMTDSDMRDNAPRTIFIISMYDDTQPRGMAVTISVKSEKISTLSSENKIISFKEMNPPDNIKDTKSDIIFFQRSVPGIDNKMQFESSSYEGYFLASEKERDLFKLILKKEDELGDRSIMFTVQNED    0.08

Shifting focus to the binder that follows.
If you can, please state the reported HEK-Blue activity, No BP, DF-1,000,000 value of IL-18 variant K53V, S55Q (ligand) YFGKLESKLSVIRNLNDQVLFIDQGNRPLFEDMTDSDMRDNAPRTIFIISMYVDQQPRGMAVTISVKSEKISTLSSENKIISFKEMNPPDNIKDTKSDIIFFQRSVPGHDNKMQFESSSYEGYFLASEKERDLFKLILKKEDELGDRSIMFTVQNED . 0.11
